ASSAY SUMMARY: folding stability dG unfold from trypsin proteolysis; higher = more stable
Kind request: treat 0.4 kcal/mol as inclusive, so folding stability dG unfold at 0.4 kcal/mol or higher is Met, anything lower is Not met.

# POLYMER SEQUENCE, GROUP
rows = [
    ("SAGGSAGGSKPIVAPVSVEDLTLEGLKALVDSHPEGEVPIFVTRSDGKPLVITVLPDGELSLDSAGGSAGGS [r12_1054_TrMRF]", "Not met"),
    ("SAMKKLTEEEIEKLAKELAKEGKVEIKIKVEKKVVKNKNGKKKEVTKVKIEIKAPPEAKKKLEKLKKKLSAG [r14_628_TrROS_Hall]", "Met"),
    ("SSSSEVKVERYPDSYLVTITIREGDKEVGTLSYPLNGSLTVEEVLEEVQKRYPDLPVSFSTSVPVPPPAPSA [r9_364_JUSTAS]", "Met"),
    ("SAGGSAGGSMGVTVTSEEDPEVRRVRETIETPSGSVVERDMVLTRPPDGPLLREALSEKVFRPSAGGSAGGS [r12_758_JUSTAS]", "Not met"),
    ("SAGGTIYIWFPMKVDEAVDLAKELAENKDWKIEIYNGGKEHEIELDKIEPVPPENVRVYIEIEPKPDSAGGS [r16_628_TrROS]", "Met"),
    ("SATAVVIKAEVIFPNNEKKEISVVIENLTEEEVEELAEELEKKIKEEAGIPDIEVKIKVETFAKDDPAFSAG [r14_207_TrMRF]", "Met"),
    ("SMTLVLDVSPDKAYKFKIEYKTPDGKRLTVDADTTMEPDGTARVPLKIPDSSVPPGTPLEIEKVEVTPLLSA [r9_359_JUSTAS]", "Not met"),
    ("SAGGSAGGSAGMTLEELAAADPDAVVPVKVPGTDTDVDVTVEPGAVRFTFPDGTTATVPASAGGSAGGSAGG [r17_128_JUSTAS]", "Not met"),
    ("SAGGWRMEIEFPGINPEELRKAIAEAPGNKDVDVDVERIPKDGSVKIEMHGNNPADRKRIQKAVKKAFSAGG [r13_580_TrROS]", "Not met"),
    ("SAMKLVTLEDGTVIETENLSLEEIKERFGGGSISVSDVPPSPAFRVESEEEREALEKEVGPGFVVVEEGSAG [r14_445_JUSTAS]", "Met"),
    ("SAGGMKTTFTITHPDAEKAREALEKAVPSDLDVEPEFTPTPDGYTTTVTVPAEHPEVAAAALAAALASAGGS [r16_43_JUSTAS]", "Not met"),
    ("SAGGSAGGSAGMKIEIELDENGELRIRITVYNKETKEEVEEFEFTLPLEELEEELRKLLESAGGSAGGSAGG [r11_376_TrROS_Hall]", "Met"),
    ("SAGGSAGGSMKTITVTFSSEEEAKKAAEEILKKEGFDEKIKEVTLTYSKEGNVLTGTVTVKTPSAGGSAGGS [r12_7_JUSTAS]", "Met"),
    ("SAGGSARVIRNPDYGMWIRLQPTDGGYTVQIEMYRPDPEDGKPKRRPMTHTIPPDDLPPEIRDLLKSAGGSA [r15_703_TrROS]", "Met"),
    ("SMVTSETRETVTVTLPDGTVVTVTVTTHRPADGVPTATVTVTTTSADGTPTTSTHTFPAAEAPALIAAALSA [r9_189_JUSTAS]", "Met"),
    ("SAGGSAGGSAGMTYVYPGPDGKEYLAEVDPNIPGAEVTVTPPDTGETVTVPLSQVTEVPPSAGGSAGGSAGG [r11_822_JUSTAS]", "Met"),
    ("SAGGMSEEVRKLAEELAKKLNIEKVEVLPDGTVRITLKNGKKIEIKVEKVEVKEVKVEVEVEEVEEESAGGS [r16_296_TrROS_Hall]", "Met"),
    ("SAGGSAGGSAGGMELELTFATPEQAVEYAERFERLGYEVEVEYYPETGLVRVRVRLYPEESAGGSAGGSAGG [r7_623_TrMRF]", "Met"),
    ("SAGGSAGGSAGGSSKNRPLVIIDYPFYTSNPDYIVRATFINYLDENNNITEVKVEVLKASAGGSAGGSAGGS [r4_75_TrMRF]", "Met"),
    ("SAGGSAGGSAPIVRLEFGPVIPLPDMSPDELKEKTAELVPEEYREKIKIVSVLDPDNPKEISAGGSAGGSAG [r3_340_TrMRF]", "Not met"),
    ("SAKKTIVVPVEKLKELLDALKEAGYEVKVEYNKENPVVTVTITVKDKNGKELKIELVVDKKTGLVTIKLSAG [r14_169_TrROS_Hall]", "Met"),
    ("SEVKLEVEEEEDGTLRVRLEVKLTREDGREVTRELELELTIELPPVEFETEEERRAALERLLEELEKLLESA [r9_790_TrROS_Hall]", "Met"),
    ("SAGGSAGGEEAPPPPVTVTVTIEVEENEDGTLTVRIEVRDEATGETRTITVTMTLEELEELAKASAGGSAGG [r6_995_TrROS_Hall]", "Met"),
    ("SAGGSAGGSAGMTLEEIEELLKKEGIDPSTLGNEKIAEIIKKKNPNTTITSSPEGTGYISKSAGGSAGGSAG [r3_375_JUSTAS]", "Not met"),
    ("SAGGSAGGSAGFKSVTIGSGTGGLTLTITDVTTGKNTVVNATSLEEAEKIGKEKGWKIILSSAGGSAGGSAG [r3_67_JUSTAS]", "Met"),
    ("SAGGSAGGSAGGEIKSGDKVVLVFNEDGKGYKAYYEEELEKLLKEDPKIKKVLVVDVPAESAGGSAGGSAGG [r7_118_TrMRF]", "Not met"),
    ("GSNAVEVTLEVEVTITDPKTPDNKTTTVTIPLTVKLPPSVTSLEELEALARERAEAVAAELGGTVVTVTPVS [r1_300_JUSTAS]", "Met"),
]
